meta.source: patent US20240010721A1

measured_on: T1, Human ROR1-ECD-his (human, UniProt Q01973 30-406)
T1 construct: extracellular domain; bought, Acrobiosystems RO1-H522y; also called hROR1-ECD-his; hROR1 ECD-his
assay: ELISA, plate coated with hROR1 ECD-his

{"binder": "PR001354 (antibody, human IgG1, kappa, V domains shown, fully human IgG1, kappa; also called anti-ROR1 1015M2-C9 hIgG1; PR001354(WT)) VH: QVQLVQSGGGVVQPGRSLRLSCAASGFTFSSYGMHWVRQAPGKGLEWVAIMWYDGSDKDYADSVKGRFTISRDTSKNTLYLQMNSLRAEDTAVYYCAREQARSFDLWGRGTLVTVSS VL: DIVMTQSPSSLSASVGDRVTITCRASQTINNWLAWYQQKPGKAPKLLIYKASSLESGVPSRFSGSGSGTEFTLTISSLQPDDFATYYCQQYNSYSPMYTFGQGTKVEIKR", "ELISA signal (called MFI)": 2.44}
{"binder": "PR001360 (antibody, human IgG1, kappa, V domains shown, fully human IgG1, kappa) VH: QVQLVESGGGVVQPGRSLRLSCAASGFTFSSYGMHWVRQAPGKGLEWVAVIWYDGSDKDSVDSVKGRFTISRDDSKNTLYLQMNSLRAEDTAVYYCAREQARSFDLWGRGTLVTVSS VL: DIQMTQSPSTLSASVGDRVTITCRASQTINNWLAWYQQKPGKAPKLLIYKASSLESGVPSRFSGSGSGTEFTLTISSLQPDDFATYYCQQYNIYSPMYTFGQGTKVEIKR", "ELISA signal (called MFI)": 2.44}
